Values compiled from ChEMBL document CHEMBL3433997.

Molecular target: Hexose transporter 1 (Plasmodium falciparum) (UniProt O97467)
Assay: ST_JUDE_LEISH: Cytotoxicity at 2uM final concentration against transgenic Leishmania Mexicana promastigotes LmPfHT that are glucose transport deficient and complemented with the Plasmodium falciparum hexose transporter. Activity is measured by DNA content using SYBR green in vitro
Format: functional
quantity_measured: inhibition (%)
Write the value in % as a bare number.

Solved cases below.
inhibition reported for this compound COc1cc(C)nc2ccc(NC(=O)Nc3ccc4nc(C)cc(OC)c4c3)cc12 : 6.65

Please fill in: inhibition reported for Clc1cccc(CNC2CCN(CC3CCCCC3)CC2)c1 = 4.11

Item: CN1CCN(c2cc(-c3ccncc3)nc(-c3cccnc3)n2)CC1 | inhibition: 3.27

The compound COc1ccc(N2CCN(CCCNC(=O)c3ccc(NC(=O)c4cc(Cl)cc(Cl)c4)cc3)CC2)c(OC)c1 showed inhibition equal to 0.82

Form field inhibition, entry C/C(=C\C(=O)NC1CC1)c1ccccc1OCc1ccccc1 : -2.11

Next:
Lookup result for COc1cc(OC)cc(-c2nn(-c3ccc([N+](=O)[O-])cc3C#N)c(=S)n2CC2CCCO2)c1 (stereo unspecified) ; measured inhibition: 1.07

// field: inhibition; key: CN(CCO)Cc1cccc(-c2ccc(NC(=O)c3cccc(C#N)c3)cc2)c1 ; value = 0.52

Looking up O=S(=O)(NCCN1CCCC1)c1ccc(-c2ccc(CNCc3ccccc3)cc2)s1 , I see its inhibition listed as 3.35

Briefly, inhibition measured for Cc1ccc(NC(=O)c2cn(-c3ccccc3)nc2-c2ccc(F)cc2)cc1[N+](=O)[O-] : 3.28

Just so you know, measured inhibition for Cc1nc(N)nc(N)c1OCCCOc1cccc(Cl)c1Cl came out at 65.8

Entry FC(F)(F)c1cccc(CNC2CCN(CC3CCCCC3)CC2)c1 — recorded inhibition = 4.53
